conditions: human;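 also: human cholestatic liver injury, shown by histopathology or by peak ALT or AST elevation over alkaline phosphatase ratio below 2, value counts indexed literature reports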
observable: Hepatotoxicity (choleostasis)
The response must contain the number and no unit.

Data request, read-out Hepatotoxicity (choleostasis), for O=C(OC[C@H]1O[C@@H](OC(=O)c2cc(O)c(O)c(OC(=O)c3cc(O)c(O)c(O)c3)c2)[C@H](OC(=O)c2cc(O)c(O)c(OC(=O)c3cc(O)c(O)c(O)c3)c2)[C@@H](OC(=O)c2cc(O)c(O)c(OC(=O)c3cc(O)c(O)c(O)c3)c2)[C@@H]1OC(=O)c1cc(O)c(O)c(OC(=O)c2cc(O)c(O)c(O)c2)c1)c1cc(O)c(O)c(OC(=O)c2cc(O)c(O)c(O)c2)c1 [TANNIC ACID]
0

Data request, read-out Hepatotoxicity (choleostasis), for `CC1(C)[C@H](C(=O)O)N2C(=O)C[C@H]2S1(=O)=O.CCN1CCN(C(=O)N[C@@H](C(=O)N[C@@H]2C(=O)N3C(C(=O)O)=C(CSc4nnnn4C)CS[C@H]23)c2ccc(O)cc2)C(=O)C1=O`
0

Data request, read-out Hepatotoxicity (choleostasis), for Clc1ccc(COC(Cn2ccnc2)c2ccc(Cl)cc2Cl)c(Cl)c1 (stereo unspecified) [MICONAZOLE]
0

Data request, read-out Hepatotoxicity (choleostasis), for CC(=O)Oc1ccc(C(=C2CCCCC2)c2ccc(OC(C)=O)cc2)cc1 [CYCLOFENIL]
2

Data request, read-out Hepatotoxicity (choleostasis), for CC(=O)Nc1ccc(O)cc1 [ACETAMINOPHEN]
5

Data request, read-out Hepatotoxicity (choleostasis), for CCCCOCC(CN1C(=O)N(CC(COCCCC)OC(N)=O)C(=O)C(CC)(c2ccccc2)C1=O)OC(N)=O (stereo unspecified) [DIFEBARBAMATE]
1
